Target: SARS-CoV-2 3CLpro (Severe acute respiratory syndrome coronavirus 2)
Experiment: biochemical
Format: biochemical
Details: 4 h, LOPAC1280 primary screen with protease, 5 µM compound, replicate 2; read-out: Replicate_2 (LOPAC_screen_w_protease)
Observed Property: inhibition at 5 µM (%)
Give bare numbers, in %.

CC(C)[C@@H]1NC(=O)[C@H](CCCCN)NC(=O)[C@@H](Cc2c[nH]c3ccccc23)NC(=O)[C@H](Cc2ccc(O)cc2)NC(=O)[C@H](C)N(C)C(=O)[C@H](Cc2ccccc2)NC1=O [Seglitide]; -0.291
CCCCS(=N)(=O)CC[C@H](N)C(=O)O (stereo partly shown); 2.27
Nc1nc(OCc2ccccc2)c2nc[nH]c2n1; 2.08

Field: next compound
Qu. Hello, please tell me recorded inhibition at 5 µM for this one: NCCS(=O)(=O)O
Ans. 1.18
